The origin of these recorded values is BigSolDB 2.1.

- recorded.conditions: in 2-butanone, 290.65 K
property.label: solubility (mole fraction)

Look up solubility (mole fraction) for this compound: Cc1c(C(=O)O)cccc1[N+](=O)[O-]
0.0576

====

- recorded.conditions: in acetone, 318.15 K
property.label: solubility (mole fraction)
I only need the number, thanks.

// query solubility (mole fraction) value for entry Cc1c(C(=O)O)cccc1[N+](=O)[O-]
0.0808

====

- recorded.conditions: in ethanol, 290.65 K
property.label: solubility (mole fraction)
Give the figure only, with no unit attached.

Given the compound Cc1c(C(=O)O)cccc1[N+](=O)[O-] , what is its reported solubility (mole fraction)?
0.0207

====

- recorded.conditions: in 1,4-dioxane, 285.65 K
property.label: solubility (mole fraction)
Please state the value as a number alone, without comment.

If you can, please state the reported solubility (mole fraction) value of Cc1c(C(=O)O)cccc1[N+](=O)[O-] .
0.0704
